# Tested on: erythrocytic glutathione peroxidase
# TEST_DESCRIPTION: Prevention of the inactivation of glutathione peroxidase by hypochlorous acid
# Type: biochemical, bovine
# CONDITIONS_USED: 25 μM test molecule + 10 μM hypochlorous acid, 2 minutes at 37° C.; 100% = no hypochlorous acid and no test molecule
RESULT_TYPE: % glutathione peroxidase activity
Give your result as the value with the unit written after it.

Consider the compound CCOC(=O)CCc1c[nH]c(=S)[nH]1 and give its measured % glutathione peroxidase activity. 94.7%

Consider the compound O=C(O)CCc1c[nH]c(=S)[nH]1 and give its measured % glutathione peroxidase activity. 94.8%

Consider the compound NCCc1c[nH]c(=S)[nH]1 and give its measured % glutathione peroxidase activity. 94.4%

Consider the compound CN(C)[C@@H](Cc1c[nH]c(=S)[nH]1)C(=O)O and give its measured % glutathione peroxidase activity. 99.1%

Consider the compound NC(=O)CCc1c[nH]c(=S)[nH]1 [BXT 52029, 3-(2'-mercaptoimidazol-4'-yl)propanamide] and give its measured % glutathione peroxidase activity. 93.2%

----------
The entries below come with measured % glucose-6-phosphate dehydrogenase activity values attached.
# Tested on: glucose-6-phosphate dehydrogenase
# TEST_DESCRIPTION: Prevention of the inactivation of glucose-6-phosphate dehydrogenase by the system Cu(II)/ascorbate/O2
# Type: biochemical, Leuconostoc mesenteroides
# CONDITIONS_USED: 25 μM test molecule + 4.5 μM Cu(2+) + 360 μM ascorbate, 5 minutes at 37° C.; 100% = no system and no test molecule
Expressed in %, but write only the number.

[
  {
    "MOLECULE": "NC(=O)CCc1c[nH]c(=S)[nH]1 [BXT 52029, 3-(2'-mercaptoimidazol-4'-yl)propanamide]",
    "MEASURED_VALUE": 92.3
  },
  {
    "MOLECULE": "O=C(O)CCc1c[nH]c(=S)[nH]1",
    "MEASURED_VALUE": 92.3
  },
  {
    "MOLECULE": "CCOC(=O)CCc1c[nH]c(=S)[nH]1",
    "MEASURED_VALUE": 93.7
  },
  {
    "MOLECULE": "CN(C)[C@@H](Cc1c[nH]c(=S)[nH]1)C(=O)O",
    "MEASURED_VALUE": 104.6
  }
]

Now let's try a different one.
Consider the molecule NCCc1c[nH]c(=S)[nH]1 and give its measured % glucose-6-phosphate dehydrogenase activity. 94.4
